Cited source: ChEMBL document CHEMBL2390858

test: in vitro; settings: human, plasma

Molecule: CC1C(NC(=O)Nc2ccc(F)c(F)c2F)CC2CC1C2(C)C (centres undefined)
fraction unbound at 4 h, 10 µM: 0.008

Molecule: COC(=O)c1ccc(NC(=O)NC23CC4CC(CC(C4)C2)C3)cc1O
fraction unbound at 4 h, 10 µM: 0.031

Molecule: Cc1ccc(NC(=O)NC2CCCCCC2)cc1Cl
fraction unbound at 4 h, 10 µM: 0.003

Molecule: N#Cc1ccc(NC(=O)NC2C3CC4CC(C3)CC2C4)cc1 (centres undefined)
fraction unbound at 4 h, 10 µM: 0.01

###

Biological target: Bifunctional epoxide hydrolase 2 (Homo sapiens, UniProt P34913)
Sequence (P34913 whole entry): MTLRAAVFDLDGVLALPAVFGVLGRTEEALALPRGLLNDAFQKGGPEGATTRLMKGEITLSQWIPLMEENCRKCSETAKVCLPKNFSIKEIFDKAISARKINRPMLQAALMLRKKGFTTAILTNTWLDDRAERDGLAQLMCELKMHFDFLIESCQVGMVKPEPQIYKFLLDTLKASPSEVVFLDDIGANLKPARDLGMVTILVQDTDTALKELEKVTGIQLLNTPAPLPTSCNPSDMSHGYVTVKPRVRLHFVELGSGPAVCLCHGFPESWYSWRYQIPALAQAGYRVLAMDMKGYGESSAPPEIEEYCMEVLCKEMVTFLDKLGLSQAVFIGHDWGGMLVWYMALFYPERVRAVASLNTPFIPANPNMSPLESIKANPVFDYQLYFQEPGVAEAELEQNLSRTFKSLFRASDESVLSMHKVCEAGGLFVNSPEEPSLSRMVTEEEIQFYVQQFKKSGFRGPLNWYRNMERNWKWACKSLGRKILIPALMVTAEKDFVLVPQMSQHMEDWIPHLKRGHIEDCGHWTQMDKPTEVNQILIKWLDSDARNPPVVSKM
pIC50: −log10 of the molar value.
Assign label 1 whenever pIC50 does not fall below 7; assign label 0 whenever it does.

Compound: Cc1cc(NS(=O)(=O)c2ccc(NC(=O)NC34CC5CC(CC(C5)C3)C4)cc2)no1
Label Value: label 0

Compound: Cc1cc(NC(=O)NC2C3CC4CC(C3)CC2C4)no1 (stereo unspecified)
Label Value: label 1

Compound: O=C(Nc1nnc(C2CC2)o1)NC12CC3CC(CC(C3)C1)C2
Label Value: label 0

Compound: Cc1nnc(NC(=O)NC23CC4CC(CC(C4)C2)C3)o1
Label Value: label 0

Compound: CCCn1nc(NC(=O)NC23CC4CC(CC(C4)C2)C3)cc1C
Label Value: label 0

Compound: Cc1onc(NC(=O)NC23CC4CC(CC(C4)C2)C3)c1Br
Label Value: label 1

Compound: CC(C)(C)c1cc(NC(=O)NC23CC4CC(CC(C4)C2)C3)no1
Label Value: label 1

Compound: Cc1csc(NC(=O)NC23CC4CC(CC(C4)C2)C3)n1
Label Value: label 0

Compound: Cc1cc(CNC(=O)NC23CC4CC(CC(C4)C2)C3)no1
Label Value: label 0

Compound: Cc1noc(NC(=O)NC23CC4CC(CC(C4)C2)C3)c1C
Label Value: label 1

Compound: Cc1nc(NS(=O)(=O)c2ccc(NC(=O)NC34CC5CC(CC(C5)C3)C4)cc2)oc1C
Label Value: label 1

Compound: O=C(Nc1nccnn1)NC12CC3CC(CC(C3)C1)C2
Label Value: label 0

Compound: Cc1noc(NC(=O)NC23CC4CC(CC(C4)C2)C3)c1C#N
Label Value: label 1

Compound: O=C(Nc1nnc(C2CCC2)o1)NC1C2CC3CC(C2)CC1C3 (stereo unspecified)
Label Value: label 0

Compound: O=C(Nc1ccncn1)NC12CC3CC(CC(C3)C1)C2
Label Value: label 0
